System: HCT-116 colon
Test: NCI-60 one-dose screen, 48 h (100 = growth as untreated, 0 = no growth, -100 = all killed)
Conditions: 10 µM unless noted
About 83,000 compounds went through this panel and 20% of them were active in at least one assay; those are over-represented in the sample as a whole.
Quick list: growth per entry.

compound	target entity	growth, %
Nc1nc(-c2ccccc2)c(N=Nc2ccc(Cl)cc2Cl)s1	HCT-116 colon	-80.6
Cc1nc(N)ncc1-c1ccc2ncnc(N3CCc4cc(F)c(Cl)cc43)c2c1	HCT-116 colon	70.4
O=c1[nH]c2ccccc2cc1CSc1ccccc1Nc1nccc(-c2ccc3c(c2)OCO3)n1	HCT-116 colon	93.2
Cc1ccc(C2CC(c3ccc(NC(=S)Nc4ccccc4)cc3)=NN2c2ccc(S(N)(=O)=O)cc2)cc1 (stereo unspecified)	HCT-116 colon	10.1
COc1cc(CNC(=O)C[C@H](C)CCC=C(C)C)ccc1OCc1cn(-c2ccccc2Cl)nn1	HCT-116 colon	49.7
O=C(c1cc2cc(OCCCN3CCC3)ccc2[nH]1)N1C[C@@H](CCl)c2c1cc(OCc1ccccc1)c1ccccc21	HCT-116 colon	-80.6

---

System: DU-145 prostate
Test: NCI-60 one-dose screen, 48 h (100 = growth as untreated, 0 = no growth, -100 = all killed)
Conditions: 10 µM unless noted
About 83,000 compounds went through this panel and 20% of them were active in at least one assay; those are over-represented in the sample as a whole.
The label T is reserved for growth strictly under 50%; F covers values equal to or above it.

compound	assigned category
CN(CCSSCCN1CCOCC1)C(=O)Oc1cc2c(c3ccccc13)[C@H](CCl)CN2C(=O)c1cc2cc(OCCCN3CCC3)ccc2[nH]1	T
Fc1ccc(F)c(CNc2nc(SCCN3CCOCC3)nc3c2cnn3CC(Cl)c2ccc(Br)cc2)c1 (stereo unspecified)	T
Cc1ccc(C(=O)Nc2cc(-n3ccnc3)cc(C(F)(F)F)c2)cc1-n1cc(-c2cnc3cccnn23)nn1	F
Cc1oc(-c2ccccc2)nc1CN[C@@H]1C[C@@H]2C[C@H]([C@H]1C)C2(C)C	F
COc1c(B(O)O)cc(F)cc1-c1nc2ccc3[nH]ncc3c2c2c1COCC2	F
COc1ccc(-c2cc(C)nc3[nH]c(=O)sc23)cc1	F
O=C(NC(=S)N1CCN(c2ncnc3c2cnn3-c2ccccc2)CC1)c1ccc(Br)cc1	F
COc1ccc(NC2=C(I)C(=O)C(C)=C(C)C2=O)cc1	F
Cn1cc(-c2cc(N)n3nc(-c4c[nH]c5ccc(Cl)cc45)cc3n2)c2cc(Br)cnc21	T
O=C(NN1C(=O)/C(=C/C=C/c2ccc([N+](=O)[O-])o2)SC1=S)c1ccc(O)cc1	T
CCOc1ccccc1NC(=O)N/C(N)=N/c1nc2ccccc2s1	T
COc1ccc(-c2cc(-c3ccccc3)c(C#N)c(=O)[nH]2)cc1S(N)(=O)=O	F
N/C(=N\c1nc2ccc([N+](=O)[O-])cc2s1)NC(=O)Nc1ccccc1Cl	T
CCCSc1nnc(-c2c(C)nc3sccn23)o1	F
O=C1Nc2cc(-c3ccc(NS(=O)(=O)c4ccc(F)c(Cl)c4)cc3)ccc2/C1=C/c1ccc[nH]1	T
CC(=O)C[n+]1cccc2c3ccccc3ccc21	F
O=C(Nc1nc2ccc([N+](=O)[O-])cc2s1)Nc1ccc(Cl)cc1Cl	F
FC(F)(F)CN1CCN(CCn2c(C(F)(F)F)cc3c(Cl)ncnc32)CC1	T
COc1ccc(-c2nnc3c(/C=C/c4ccc(Br)cc4)nc4ccccc4n23)cc1	F
O=Cc1cncc(-c2ccc3ncnc(N4CCc5cc(F)c(Cl)cc54)c3c2)c1	T
Cc1ccccc1Nc1nnc(-c2c[nH]c3ccccc23)o1	T
